The measurements presented in this section are drawn from paper PMC9511441.

# Test system: S. haemolyticus
# METHOD: MIC, broth microdilution
# Type: cell-based
# RUN_PARAMETERS: Staphylococcus haemolyticus, S.haemolyticus DALB_R4, mecA; read-out: MIC value
MEASURED_ATTRIBUTE: log10(MIC) (log10 of the value in µg/mL)

>>> numeric_result("CC(=O)N[C@H]1[C@H](O[C@@H]2c3ccc(c(Cl)c3)Oc3cc4cc(c3O)Oc3ccc(cc3Cl)C[C@H]3NC(=O)[C@H](n5cc(COCCCC(F)(F)C(F)(F)C(F)(F)C(F)(F)C(F)(F)C(F)(F)F)nn5)c5ccc(O)c(c5)Oc5cc(O)cc(c5)[C@H](NC3=O)C(=O)N[C@H]4C(=O)N[C@H]3C(=O)N[C@@H]2C(=O)N[C@H](C(=O)O)c2cc(O)cc(O)c2-c2cc3ccc2O)O[C@H](CO)[C@@H](O)[C@@H]1O")
0.90
>>> numeric_result("CC(=O)N[C@H]1[C@H](O[C@@H]2c3ccc(c(Cl)c3)Oc3cc4cc(c3O)Oc3ccc(cc3Cl)C[C@H]3NC(=O)[C@H](n5cc(COCCOCCCC(F)(F)C(F)(F)C(F)(F)C(F)(F)F)nn5)c5ccc(O)c(c5)Oc5cc(O)cc(c5)[C@H](NC3=O)C(=O)N[C@H]4C(=O)N[C@H]3C(=O)N[C@@H]2C(=O)N[C@H](C(=O)O)c2cc(O)cc(O)c2-c2cc3ccc2O)O[C@H](CO)[C@@H](O)[C@@H]1O")
0.30
>>> numeric_result("CC(=O)N[C@H]1[C@H](O[C@@H]2c3ccc(c(Cl)c3)Oc3cc4cc(c3O)Oc3ccc(cc3Cl)C[C@H]3NC(=O)[C@H](NC(=O)CCC(F)(F)C(F)(F)C(F)(F)C(F)(F)C(F)(F)C(F)(F)C(F)(F)C(F)(F)F)c5ccc(O)c(c5)Oc5cc(O)cc(c5)[C@H](NC3=O)C(=O)N[C@H]4C(=O)N[C@H]3C(=O)N[C@@H]2C(=O)N[C@H](C(=O)O)c2cc(O)cc(O)c2-c2cc3ccc2O)O[C@H](CO)[C@@H](O)[C@@H]1O")
0.90
>>> numeric_result("CN[C@H](CC(C)C)C(=O)N[C@H]1C(=O)N[C@@H](CC(N)=O)C(=O)N[C@H]2C(=O)N[C@H]3C(=O)N[C@H](C(=O)N[C@H](C(=O)O)c4cc(O)cc(O)c4-c4cc3ccc4O)[C@H](O[C@H]3C[C@](C)(N)[C@@H](O)[C@H](C)O3)c3ccc(c(Cl)c3)Oc3cc2cc(c3O[C@@H]2O[C@H](CO)[C@@H](O)[C@H](O)[C@H]2O[C@H]2C[C@](C)(NCc3ccc(-c4ccc(Cl)cc4)cc3)[C@@H](O)[C@H](C)O2)Oc2ccc(cc2Cl)[C@H]1O [ORI, oritavancin, reference compound]")
-1.20
>>> numeric_result("CC(=O)N[C@H]1[C@H](O[C@@H]2c3ccc(c(Cl)c3)Oc3cc4cc(c3O)Oc3ccc(cc3Cl)C[C@H]3NC(=O)[C@H](NC(=N)N)c5ccc(O)c(c5)Oc5cc(O)cc(c5)[C@H](NC3=O)C(=O)N[C@H]4C(=O)N[C@H]3C(=O)N[C@@H]2C(=O)N[C@H](C(=O)O)c2cc(O)cc(O)c2-c2cc3ccc2O)O[C@H](CO)[C@@H](O)[C@@H]1O")
-0.90
>>> numeric_result("CN[C@H](CC(C)C)C(=O)N[C@H]1C(=O)N[C@@H](CC(N)=O)C(=O)N[C@H]2C(=O)N[C@H]3C(=O)N[C@H](C(=O)N[C@H](C(=O)O)c4cc(O)cc(O)c4-c4cc3ccc4O)[C@H](O)c3ccc(c(Cl)c3)Oc3cc2cc(c3O[C@@H]2O[C@H](CO)[C@@H](O)[C@H](O)[C@H]2O[C@H]2C[C@](C)(N)[C@H](O)[C@H](C)O2)Oc2ccc(cc2Cl)[C@H]1O [VAN, vancomycin, reference compound]")
1.51

###

# System: S. epidermidis
# METHOD: microbe, parasite or virus in culture
# Type: cell-based
# RUN_PARAMETERS: Staphylococcus epidermidis, read-out: MIC value, S.epidermidis ORI_R2, mecA
MEASURED_ATTRIBUTE: log10 of MIC (log10 of the value in µg/mL)

>>> numeric_result("CN[C@H](CC(C)C)C(=O)N[C@H]1C(=O)N[C@@H](CC(N)=O)C(=O)N[C@H]2C(=O)N[C@H]3C(=O)N[C@H](C(=O)N[C@H](C(=O)O)c4cc(O)cc(O)c4-c4cc3ccc4O)[C@H](O)c3ccc(c(Cl)c3)Oc3cc2cc(c3O[C@@H]2O[C@H](CO)[C@@H](O)[C@H](O)[C@H]2O[C@H]2C[C@](C)(N)[C@H](O)[C@H](C)O2)Oc2ccc(cc2Cl)[C@H]1O [VAN, vancomycin, reference compound]")
0.90
>>> numeric_result("CN[C@H](CC(C)C)C(=O)N[C@H]1C(=O)N[C@@H](CC(N)=O)C(=O)N[C@H]2C(=O)N[C@H]3C(=O)N[C@H](C(=O)N[C@H](C(=O)O)c4cc(O)cc(O)c4-c4cc3ccc4O)[C@H](O[C@H]3C[C@](C)(N)[C@@H](O)[C@H](C)O3)c3ccc(c(Cl)c3)Oc3cc2cc(c3O[C@@H]2O[C@H](CO)[C@@H](O)[C@H](O)[C@H]2O[C@H]2C[C@](C)(NCc3ccc(-c4ccc(Cl)cc4)cc3)[C@@H](O)[C@H](C)O2)Oc2ccc(cc2Cl)[C@H]1O [ORI, oritavancin, reference compound]")
-0.30
>>> numeric_result("CC(=O)N[C@H]1[C@H](O[C@@H]2c3ccc(c(Cl)c3)Oc3cc4cc(c3O)Oc3ccc(cc3Cl)C[C@H]3NC(=O)[C@H](n5cc(COCCOCCCC(F)(F)C(F)(F)C(F)(F)C(F)(F)F)nn5)c5ccc(O)c(c5)Oc5cc(O)cc(c5)[C@H](NC3=O)C(=O)N[C@H]4C(=O)N[C@H]3C(=O)N[C@@H]2C(=O)N[C@H](C(=O)O)c2cc(O)cc(O)c2-c2cc3ccc2O)O[C@H](CO)[C@@H](O)[C@@H]1O")
-0.30
>>> numeric_result("CC(=O)N[C@H]1[C@H](O[C@@H]2c3ccc(c(Cl)c3)Oc3cc4cc(c3O)Oc3ccc(cc3Cl)C[C@H]3NC(=O)[C@H](NC(=O)CCC(F)(F)C(F)(F)C(F)(F)C(F)(F)C(F)(F)C(F)(F)C(F)(F)C(F)(F)F)c5ccc(O)c(c5)Oc5cc(O)cc(c5)[C@H](NC3=O)C(=O)N[C@H]4C(=O)N[C@H]3C(=O)N[C@@H]2C(=O)N[C@H](C(=O)O)c2cc(O)cc(O)c2-c2cc3ccc2O)O[C@H](CO)[C@@H](O)[C@@H]1O")
0.00
>>> numeric_result("CC(=O)N[C@H]1[C@H](O[C@@H]2c3ccc(c(Cl)c3)Oc3cc4cc(c3O)Oc3ccc(cc3Cl)C[C@H]3NC(=O)[C@H](n5cc(COCCCC(F)(F)C(F)(F)C(F)(F)C(F)(F)C(F)(F)C(F)(F)F)nn5)c5ccc(O)c(c5)Oc5cc(O)cc(c5)[C@H](NC3=O)C(=O)N[C@H]4C(=O)N[C@H]3C(=O)N[C@@H]2C(=O)N[C@H](C(=O)O)c2cc(O)cc(O)c2-c2cc3ccc2O)O[C@H](CO)[C@@H](O)[C@@H]1O")
0.00
>>> numeric_result("CC(=O)N[C@H]1[C@H](O[C@@H]2c3ccc(c(Cl)c3)Oc3cc4cc(c3O)Oc3ccc(cc3Cl)C[C@H]3NC(=O)[C@H](NC(=N)N)c5ccc(O)c(c5)Oc5cc(O)cc(c5)[C@H](NC3=O)C(=O)N[C@H]4C(=O)N[C@H]3C(=O)N[C@@H]2C(=O)N[C@H](C(=O)O)c2cc(O)cc(O)c2-c2cc3ccc2O)O[C@H](CO)[C@@H](O)[C@@H]1O")
-0.90
>>> numeric_result("CC(=O)N[C@H]1[C@H](O[C@@H]2c3ccc(c(Cl)c3)Oc3cc4cc(c3O)Oc3ccc(cc3Cl)C[C@H]3NC(=O)[C@H](NC(=O)c5cc(OCCCSCCNC(=N)N)c(OCCCSCCNC(=N)N)c(OCCCSCCNC(=N)N)c5)c5ccc(O)c(c5)Oc5cc(O)cc(c5)[C@H](NC3=O)C(=O)N[C@H]4C(=O)N[C@H]3C(=O)N[C@@H]2C(=O)N[C@H](C(=O)O)c2cc(O)cc(O)c2-c2cc3ccc2O)O[C@H](CO)[C@@H](O)[C@@H]1O")
-0.60

###

# Lookup of reported MIC keyed by entry
# Tested on: S. haemolyticus
# METHOD: MIC, broth microdilution
# Assay type: cell-based
# RUN_PARAMETERS: Staphylococcus haemolyticus, S.haemolyticus ORI_R1, mecA; read-out: MIC value
MEASURED_ATTRIBUTE: MIC

>>> result("CC(=O)N[C@H]1[C@H](O[C@@H]2c3ccc(c(Cl)c3)Oc3cc4cc(c3O)Oc3ccc(cc3Cl)C[C@H]3NC(=O)[C@H](NC(=N)N)c5ccc(O)c(c5)Oc5cc(O)cc(c5)[C@H](NC3=O)C(=O)N[C@H]4C(=O)N[C@H]3C(=O)N[C@@H]2C(=O)N[C@H](C(=O)O)c2cc(O)cc(O)c2-c2cc3ccc2O)O[C@H](CO)[C@@H](O)[C@@H]1O [Compound 6]")
"0.25 µg/mL"
>>> result("CC(=O)N[C@H]1[C@H](O[C@@H]2c3ccc(c(Cl)c3)Oc3cc4cc(c3O)Oc3ccc(cc3Cl)C[C@H]3NC(=O)[C@H](NC(=O)CCC(F)(F)C(F)(F)C(F)(F)C(F)(F)C(F)(F)C(F)(F)C(F)(F)C(F)(F)F)c5ccc(O)c(c5)Oc5cc(O)cc(c5)[C@H](NC3=O)C(=O)N[C@H]4C(=O)N[C@H]3C(=O)N[C@@H]2C(=O)N[C@H](C(=O)O)c2cc(O)cc(O)c2-c2cc3ccc2O)O[C@H](CO)[C@@H](O)[C@@H]1O [Compound 5]")
"8 µg/mL"
>>> result("CC(=O)N[C@H]1[C@H](O[C@@H]2c3ccc(c(Cl)c3)Oc3cc4cc(c3O)Oc3ccc(cc3Cl)C[C@H]3NC(=O)[C@H](NC(=O)c5cc(OCCCSCCNC(=N)N)c(OCCCSCCNC(=N)N)c(OCCCSCCNC(=N)N)c5)c5ccc(O)c(c5)Oc5cc(O)cc(c5)[C@H](NC3=O)C(=O)N[C@H]4C(=O)N[C@H]3C(=O)N[C@@H]2C(=O)N[C@H](C(=O)O)c2cc(O)cc(O)c2-c2cc3ccc2O)O[C@H](CO)[C@@H](O)[C@@H]1O [Compound 7]")
"0.5 µg/mL"
